# assay: Liver microsomal stability, human liver microsomes
# Assay type: in vitro ADME
# conditions-used: 1 μM compound, NADPH, read-out: t1/2 (min) in HLM
# Lookup of reported half-life at 1 μM keyed by entry

test-smiles	half-life at 1 μM
CCn1cc(C(F)(F)F)nc1-c1ccc(Cn2ncc3cnc(-c4c(OC(C)(C)C)ncnc4C4CC4)nc32)cc1	< 25 min
COc1cccc(OC)c1-c1ncc2cnn(Cc3ccc(-c4nc(C(F)(F)F)cn4C)cc3)c2n1	< 25 min
CCn1cc(C(F)(F)F)nc1-c1ccc([C@@H](C)n2ncc3cnc(-c4c(OC)ncnc4OC)nc32)cc1	> 25 min
CCOc1ncnc(C2CC2)c1-c1ncc2c(OCC)nn(Cc3ccc(-c4nc(C(F)(F)F)cn4CC)cc3)c2n1	< 25 min
[2H]C([2H])([2H])C([2H])(n1cc(C(F)(F)F)nc1-c1ccc(Cn2ncc3cnc(-c4c(OC)ncnc4C4CC4)nc32)cc1)C([2H])([2H])[2H]	> 25 min
COc1ncnc(C2CC2)c1-c1ncc2c(OC)nn([C@@H](C)c3ccc(-c4nc(C(F)(F)F)cn4C(C)C)cc3)c2n1	> 25 min
CCn1cc(C(F)(F)F)nc1-c1ccc([C@H](C)n2ncc3cnc(-c4c(OC)ncnc4C(C)C)nc32)cc1F	> 25 min
COc1ncnc(C2CC2)c1-c1ncc2cnn(Cc3ccc(-n4nc(C(F)(F)F)cc4OC4CNC4)cc3)c2n1	> 25 min
CCn1cc(C(F)(F)F)nc1-c1ccc(Cn2ncc3cnc(-c4c(C5CC5)cnn4CC)nc32)cc1	< 25 min
COc1ncnc(C2CC2)c1-c1ncc2cnn(Cc3ccc(-n4nc(C(F)(F)F)cc4OC)cc3)c2n1	> 25 min
CC(C)c1ncccc1-c1ncc2cnn(Cc3ccc(-c4nc(C(F)(F)F)cn4C)cc3)c2n1	< 25 min
CCn1cc(C(F)(F)F)nc1-c1ccc(Cn2nc(OC3CCC3)c3cnc(-c4c(OC)ncnc4C4CC4)nc32)cc1	< 25 min
COc1ncnc(C2CC2)c1-c1ncc2cnn(Cc3ccc(-c4nc(C(F)(F)F)nn4C)c(F)c3)c2n1	> 25 min
COc1ncnc(C2CC2)c1-c1ncc2cnn(Cc3ccc(-c4nc5c(F)cccc5n4C)cc3)c2n1	> 25 min
